- assay comment: Phase 1 rising-single-dose pharmacokinetic study in healthy adult subjects (Example 1)
- Type: in vivo, human
- condition parameters: human, plasma; single oral dose 800 mg, mean, n = 6; read-out: t½ (converted)

{"columns": ["compound", "half-life"],
 "data": [
  ["CC(C)(C)NC(=O)N[C@H](C(=O)N1C[C@H]2[C@@H]([C@H]1C(=O)NC(CC1CCC1)C(=O)C(N)=O)C2(C)C)C(C)(C)C (mixture of isomers)", "606 min"]
]}

---

- assay comment: Food-effect crossover bioavailability study, 600 mg fed vs fasted, healthy adult subjects (Example 2)
- Format: in vivo, human
- condition parameters: both sexes, human, plasma, po, 600 mg, 600 mg PO, fed, mean

{"columns": ["compound", "concentration at 8 hours (ng/mL)"],
 "data": [
  ["CC(C)(C)NC(=O)N[C@H](C(=O)N1C[C@H]2[C@@H]([C@H]1C(=O)NC(CC1CCC1)C(=O)C(N)=O)C2(C)C)C(C)(C)C (mixture of isomers)", 268]
]}

---

- assay comment: Phase 1 rising-single-dose pharmacokinetic study in healthy adult subjects (Example 1)
- Assay type: in vivo, human
- condition parameters: human, plasma; single oral dose 800 mg, mean, n = 6
observable: Vd/F (L)

{"columns": ["molecule", "observable", "measured result"],
 "data": [
  ["CC(C)(C)NC(=O)N[C@H](C(=O)N1C[C@H]2[C@@H]([C@H]1C(=O)NC(CC1CCC1)C(=O)C(N)=O)C2(C)C)C(C)(C)C (mixture of isomers)", "Vd/F", 5450]
]}

---

- assay comment: Food-effect crossover bioavailability study, 600 mg fed vs fasted, healthy adult subjects (Example 2)
- Assay type: in vivo, human
- condition parameters: both sexes, human, plasma, po, 600 mg, 600 mg PO, fasted, median

{"columns": ["compound", "concentration at 8 hours [ng/mL]"],
 "data": [
  ["CC(C)(C)NC(=O)N[C@H](C(=O)N1C[C@H]2[C@@H]([C@H]1C(=O)NC(CC1CCC1)C(=O)C(N)=O)C2(C)C)C(C)(C)C (mixture of isomers)", 33.5]
]}

---

- assay comment: Multiple oral dosing for 14 days, pharmacokinetics in HCV infected subjects (Example 3)
- Type: in vivo, human
- condition parameters: human, plasma, oral, 400 mg, Day 1, 400 mg TID, mean, n = 10

{"columns": ["compound", "Cmax / ng/mL"],
 "data": [
  ["CC(C)(C)NC(=O)N[C@H](C(=O)N1C[C@H]2[C@@H]([C@H]1C(=O)NC(CC1CCC1)C(=O)C(N)=O)C2(C)C)C(C)(C)C (mixture of isomers) [Formula Ia]", 504]
]}

---

- assay comment: Phase 1 rising-single-dose pharmacokinetic study in healthy adult subjects (Example 1)
- Type: in vivo, human
- condition parameters: human, plasma; single oral dose 50 mg, mean, n = 6

{"columns": ["compound", "Vd/F [L]"],
 "data": [
  ["CC(C)(C)NC(=O)N[C@H](C(=O)N1C[C@H]2[C@@H]([C@H]1C(=O)NC(CC1CCC1)C(=O)C(N)=O)C2(C)C)C(C)(C)C (mixture of isomers) [Formula Ia]", 1070]
]}

---

- assay comment: Multiple oral dosing for 14 days, pharmacokinetics in HCV infected subjects (Example 3)
- Type: in vivo, human
- condition parameters: human, plasma, oral, across dosages (100 mg BID to 400 mg TID); read-out: Mean Tmax

{"columns": ["compound", "Tmax"],
 "data": [
  ["CC(C)(C)NC(=O)N[C@H](C(=O)N1C[C@H]2[C@@H]([C@H]1C(=O)NC(CC1CCC1)C(=O)C(N)=O)C2(C)C)C(C)(C)C (mixture of isomers) [Formula Ia]", "1 to 1.5 h"]
]}

---

- assay comment: Multiple oral dosing for 14 days, pharmacokinetics in HCV infected subjects (Example 3)
- Type: in vivo, human
- condition parameters: Day 14, 100 mg BID, at 0 hour (trough) predose, mean
observable: Cmin (ng/mL)

{"columns": ["molecule", "observable", "measured result"],
 "data": [
  ["CC(C)(C)NC(=O)N[C@H](C(=O)N1C[C@H]2[C@@H]([C@H]1C(=O)NC(CC1CCC1)C(=O)C(N)=O)C2(C)C)C(C)(C)C (mixture of isomers)", "Cmin", 12.7]
]}

---

- assay comment: Multiple oral dosing for 14 days, pharmacokinetics in HCV infected subjects (Example 3)
- Type: in vivo, human
- condition parameters: human, plasma, oral, 400 mg, Day 1, 400 mg TID, mean; read-out: AUC(0-8 hr)

{"columns": ["molecule", "AUC(0-t) (ng·h/mL)"],
 "data": [
  ["CC(C)(C)NC(=O)N[C@H](C(=O)N1C[C@H]2[C@@H]([C@H]1C(=O)NC(CC1CCC1)C(=O)C(N)=O)C2(C)C)C(C)(C)C (mixture of isomers)", 1650]
]}

---

- assay comment: Food-effect crossover bioavailability study, 600 mg fed vs fasted, healthy adult subjects (Example 2)
- Type: in vivo, human
- condition parameters: both sexes, human, plasma, po, 600 mg, 600 mg PO, fed, Max

{"columns": ["compound", "concentration at 12 hours [ng/mL]"],
 "data": [
  ["CC(C)(C)NC(=O)N[C@H](C(=O)N1C[C@H]2[C@@H]([C@H]1C(=O)NC(CC1CCC1)C(=O)C(N)=O)C2(C)C)C(C)(C)C (mixture of isomers)", 384]
]}

---

- assay comment: Phase 1 rising-single-dose pharmacokinetic study in healthy adult subjects (Example 1)
- Assay type: in vivo, human
- condition parameters: human, plasma; single oral dose 400 mg, mean, n = 6; read-out: t½ (converted)

{"columns": ["compound", "half-life, h"],
 "data": [
  ["CC(C)(C)NC(=O)N[C@H](C(=O)N1C[C@H]2[C@@H]([C@H]1C(=O)NC(CC1CCC1)C(=O)C(N)=O)C2(C)C)C(C)(C)C (mixture of isomers)", 15.4]
]}

---

- assay comment: Multiple oral dosing for 14 days, pharmacokinetics in HCV infected subjects (Example 3)
- Assay type: in vivo, human
- condition parameters: Day 14, 200 mg BID, at 0 hour (trough) predose, mean

{"columns": ["compound", "uom", "Cmin"],
 "data": [
  ["CC(C)(C)NC(=O)N[C@H](C(=O)N1C[C@H]2[C@@H]([C@H]1C(=O)NC(CC1CCC1)C(=O)C(N)=O)C2(C)C)C(C)(C)C (mixture of isomers)", "ng/mL", 46.3]
]}

---

- assay comment: Phase 1 rising-single-dose pharmacokinetic study in healthy adult subjects (Example 1)
- Assay type: in vivo, human
- condition parameters: human, plasma, po, 100 mg, single oral dose 100 mg, mean, n = 6; read-out: AUC(l)

{"columns": ["compound", "AUC [ng·h/mL]"],
 "data": [
  ["CC(C)(C)NC(=O)N[C@H](C(=O)N1C[C@H]2[C@@H]([C@H]1C(=O)NC(CC1CCC1)C(=O)C(N)=O)C2(C)C)C(C)(C)C (mixture of isomers)", 345]
]}

---

- assay comment: Multiple oral dosing for 14 days, pharmacokinetics in HCV infected subjects (Example 3)
- Format: in vivo, human
- condition parameters: human, plasma, oral, 400 mg, Day 14, 400 mg TID, median; read-out: Tmax

{"columns": ["compound", "Tmax"],
 "data": [
  ["CC(C)(C)NC(=O)N[C@H](C(=O)N1C[C@H]2[C@@H]([C@H]1C(=O)NC(CC1CCC1)C(=O)C(N)=O)C2(C)C)C(C)(C)C (mixture of isomers)", "1.5 h"]
]}

---

- assay comment: Food-effect crossover bioavailability study, 600 mg fed vs fasted, healthy adult subjects (Example 2)
- Assay type: in vivo, human
- condition parameters: both sexes, human, plasma, po, 600 mg, 600 mg PO, fasted, mean, balanced data

{"columns": ["compound", "Vd/F, L"],
 "data": [
  ["CC(C)(C)NC(=O)N[C@H](C(=O)N1C[C@H]2[C@@H]([C@H]1C(=O)NC(CC1CCC1)C(=O)C(N)=O)C2(C)C)C(C)(C)C (mixture of isomers)", 6730]
]}

---

- assay comment: Phase 1 rising-single-dose pharmacokinetic study in healthy adult subjects (Example 1)
- Type: in vivo, human
- condition parameters: human, plasma; single oral dose 600 mg, mean, n = 6

{"columns": ["molecule", "uom", "Cmax"],
 "data": [
  ["CC(C)(C)NC(=O)N[C@H](C(=O)N1C[C@H]2[C@@H]([C@H]1C(=O)NC(CC1CCC1)C(=O)C(N)=O)C2(C)C)C(C)(C)C (mixture of isomers)", "ng/mL", 528]
]}

---

- assay comment: Multiple oral dosing for 14 days, pharmacokinetics in HCV infected subjects (Example 3)
- Format: in vivo, human
- condition parameters: human, plasma, oral, 400 mg, Day 14, 400 mg TID, mean; read-out: t½ (converted)

{"columns": ["compound", "half-life"],
 "data": [
  ["CC(C)(C)NC(=O)N[C@H](C(=O)N1C[C@H]2[C@@H]([C@H]1C(=O)NC(CC1CCC1)C(=O)C(N)=O)C2(C)C)C(C)(C)C (mixture of isomers) [Formula Ia]", "15.9 h"]
]}
